Listed below: protein stability index values for each entry.
B1: TCEB3B (parent)
chain: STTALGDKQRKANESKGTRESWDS

Variants of: B1
Test: protein stability index of a GFP-peptide fusion (GPS, HEK-293T) (PSI 1-6); higher = more stable;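 also: lentivirally expressed fusions sorted by FACS into six bins by GFP to DsRed ratio, PSI derived from sequencing read proportions per bin multiplied by bin number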
Settings: c terminus: a fixed tail appended
Could you keep your reply to the number by itself?

Request: Entry N13P : reported protein stability index = ?
Response: 3.83

Request: Entry E20D : reported protein stability index = ?
Response: 4.76

Request: Entry G6D : reported protein stability index = ?
Response: 4.12

Request: Entry Q9E : reported protein stability index = ?
Response: 3.71

Request: Entry E20R : reported protein stability index = ?
Response: 4.2

Request: Entry T3P : reported protein stability index = ?
Response: 4.02

Request: Entry D23L : reported protein stability index = ?
Response: 1.98

Request: Entry T3R : reported protein stability index = ?
Response: 3.89

Request: Entry T2D : reported protein stability index = ?
Response: 4.01

Request: Entry T3Q : reported protein stability index = ?
Response: 4.35

Request: Entry K8D : reported protein stability index = ?
Response: 4.59

Request: Entry T18S : reported protein stability index = ?
Response: 4

Request: Entry W22Y : reported protein stability index = ?
Response: 5.6

Request: Entry S24E : reported protein stability index = ?
Response: 3.93
